System: hiPSC-CMs (iCell-Cardiomyocytes^2)
particulars: 1 µM, 24h
measure name: Flat T-wave-like, number of observations/total well numbers

Consider the worked cases shown below.
COc1cc2c(Nc3ccc(Br)cc3F)ncnc2cc1OCC1CCN(C)CC1 [Vandetanib]
5/5
COc1cccc2c1C(=O)c1c(O)c3c(c(O)c1C2=O)C[C@@](O)(C(=O)CO)C[C@@H]3O[C@H]1C[C@H](N)[C@H](O)[C@H](C)O1 [Doxorubicin]
4/5
COc1nc(N)nc2c1ncn2[C@@H]1O[C@H](COP(=O)(N[C@@H](C)C(=O)OCC(C)(C)C)Oc2cccc3ccccc23)[C@@H](O)[C@@]1(C)O (stereo partly shown) [BMS-986094]
0/5
Cc1cn(-c2cc(NC(=O)c3ccc(C)c(Nc4nccc(-c5cccnc5)n4)c3)cc(C(F)(F)F)c2)cn1 [Nilotinib]
2/5
C#Cc1cccc(Nc2ncnc3cc(OCCOC)c(OCCOC)cc23)c1 [Erlotinib]
0/5
CC(C)(Sc1cc(C(C)(C)C)c(O)c(C(C)(C)C)c1)Sc1cc(C(C)(C)C)c(O)c(C(C)(C)C)c1 [Probucol]
0/4

Read the entry N=C(N)c1ccc(OCCCCCOc2ccc(C(=N)N)cc2)cc1 [Pentamidine] and write its reported Flat T-wave-like, number of observations/total well numbers. 0/6
